Recorded below: IC50, system Stromelysin-1 (Homo sapiens, UniProt P08254).
Answer format: numeric, µM implied, no suffix.

Please review the entries below; each comes with its answer.
>>> df
                                   compound  quantitative_result
0  CCCCOc1ccc(S(=O)(=O)NC(CC#Cc2ccccc2)C(=O)O)cc1 (stereo not drawn)                 15.4
1  O=C(Nc1ccc(S(=O)(=O)NC(CC#CCOc2ccccc2)C(=O)O)cc1)c1ccc(Br)cc1 (stereo not drawn)                 2.85
2  COc1ccc(-c2ccc(S(=O)(=O)NC(CC#Cc3cccc(N4CCOCC4)c3)C(=O)O)cc2)cc1 (stereo not drawn)                 3.52
3  Cc1ccc(C#Cc2ccc(S(=O)(=O)NC(CC#Cc3ccccc3)C(=O)O)cc2)cc1 (stereo not drawn)                 22.1
4  COc1ccc(C#Cc2ccc(S(=O)(=O)NC(CC#Cc3ccccc3)C(=O)O)cc2)cc1 (stereo not drawn)                 4.36

Now for the compound whose IC50 we want.
Quick one: IC50 for COCC#CCC(NS(=O)(=O)c1ccc(NC(=O)c2ccc(Br)cc2)cc1)C(=O)O (stereo not drawn) ?
8.62
